Where do these numbers come from? They come from patent US7504398B2.

Notes on IC50 obtained with hA2B receptors (Homo sapiens, UniProt P29275).
Sequence (P29275 whole entry): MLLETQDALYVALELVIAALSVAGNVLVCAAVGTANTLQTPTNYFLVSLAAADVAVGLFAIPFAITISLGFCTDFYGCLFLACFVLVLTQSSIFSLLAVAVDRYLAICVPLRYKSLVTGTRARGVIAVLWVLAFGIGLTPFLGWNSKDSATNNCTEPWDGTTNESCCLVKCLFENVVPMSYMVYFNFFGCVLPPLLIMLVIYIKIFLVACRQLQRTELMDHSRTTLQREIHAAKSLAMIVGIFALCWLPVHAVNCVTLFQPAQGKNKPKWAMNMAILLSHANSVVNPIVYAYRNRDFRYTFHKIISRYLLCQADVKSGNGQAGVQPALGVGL

Molecule	IC50
COc1ccc(NS(=O)(=O)c2ccc(-c3cc4c([nH]3)c(=O)n(C)c(=O)n4C)cc2)cn1 [Example 36]	18 nM
Cn1c(=O)c2[nH]c(-c3ccc(S(=O)(=O)N4CCN(Cc5cccc(F)c5)CC4)cc3)cc2n(C)c1=O [Example 3]	7 nM
Cn1c(=O)c2[nH]c(-c3ccc(S(=O)(=O)NCCOc4ccccn4)cc3)cc2n(C)c1=O [Example 172]	17 nM

# context switch: different molecule, same IC50
Data point: Cn1c(=O)c2[nH]c(-c3ccc(S(=O)(=O)N4CCN(Cc5ccc(Cl)s5)CC4)cc3)cc2n(C)c1=O [Example 18] ; IC50 = 4 nM
